# Assayed Target: H+-ATPase (Escherichia coli, UniProt P0ABB0+P0ABB4)
# Sequence (P0ABB0 whole entry): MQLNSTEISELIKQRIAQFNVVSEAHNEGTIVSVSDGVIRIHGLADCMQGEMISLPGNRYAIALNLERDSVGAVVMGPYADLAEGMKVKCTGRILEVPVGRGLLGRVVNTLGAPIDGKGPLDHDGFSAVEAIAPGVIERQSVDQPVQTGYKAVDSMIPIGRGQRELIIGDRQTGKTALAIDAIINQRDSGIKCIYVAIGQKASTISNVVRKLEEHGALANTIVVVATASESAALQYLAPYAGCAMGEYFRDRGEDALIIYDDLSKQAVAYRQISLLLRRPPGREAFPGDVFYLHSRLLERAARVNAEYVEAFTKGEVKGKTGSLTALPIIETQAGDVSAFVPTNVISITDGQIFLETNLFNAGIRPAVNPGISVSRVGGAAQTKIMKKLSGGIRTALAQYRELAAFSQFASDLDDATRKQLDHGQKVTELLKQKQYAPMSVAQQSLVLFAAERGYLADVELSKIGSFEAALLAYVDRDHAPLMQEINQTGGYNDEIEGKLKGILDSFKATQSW
# Sequence (P0ABB4 2-460): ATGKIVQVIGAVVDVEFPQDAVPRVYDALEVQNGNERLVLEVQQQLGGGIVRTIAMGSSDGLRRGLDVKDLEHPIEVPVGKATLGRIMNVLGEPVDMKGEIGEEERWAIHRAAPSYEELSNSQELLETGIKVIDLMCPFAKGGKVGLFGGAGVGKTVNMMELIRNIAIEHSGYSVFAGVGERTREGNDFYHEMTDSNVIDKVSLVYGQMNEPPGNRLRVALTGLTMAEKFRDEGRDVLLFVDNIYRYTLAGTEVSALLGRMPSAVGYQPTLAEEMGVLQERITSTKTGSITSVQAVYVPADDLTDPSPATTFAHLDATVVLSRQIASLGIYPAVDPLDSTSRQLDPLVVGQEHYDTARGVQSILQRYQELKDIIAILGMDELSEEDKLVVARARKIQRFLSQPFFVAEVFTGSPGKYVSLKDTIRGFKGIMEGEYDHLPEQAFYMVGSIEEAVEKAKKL
# Sequence (P0ABA6 whole entry, further chain): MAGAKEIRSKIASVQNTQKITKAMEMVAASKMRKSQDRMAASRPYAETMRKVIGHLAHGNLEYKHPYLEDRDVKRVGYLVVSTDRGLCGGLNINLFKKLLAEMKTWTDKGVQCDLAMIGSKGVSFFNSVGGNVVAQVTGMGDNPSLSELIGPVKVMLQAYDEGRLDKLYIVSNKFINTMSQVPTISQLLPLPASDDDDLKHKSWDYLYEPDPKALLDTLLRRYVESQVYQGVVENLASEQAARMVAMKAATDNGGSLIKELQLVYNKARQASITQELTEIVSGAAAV
# Experiment Summary: In vitro ATPase activity, H+-ATPase
# Experimental Conditions: read-out: ATPase activity IC50
Readout Label: pIC50
One number for each entry, as −log10 of the molar value.

In plain terms, O=C1OC2(c3cc(I)c(O)c(I)c3Oc3c2cc(I)c(O)c3I)c2c(Cl)c(Cl)c(Cl)c(Cl)c21 has a documented pIC50 of 4.22

---

# Assayed Target: SpuB ATPase (Pseudomonas aeruginosa, UniProt Q9I6J3)
# Experiment Summary: In vitro ATPase activity, SpuB
# Experimental Conditions: read-out: ATPase activity IC50
pIC50: −log10 of the molar value.
Readout Label: pIC50

compound O=C1OC2(c3cc(I)c(O)c(I)c3Oc3c2cc(I)c(O)c3I)c2c(Cl)c(Cl)c(Cl)c(Cl)c21 , pIC50 observed: < 3.70
